Source of measurements: the supplement of paper PMC9233669

Provide the recorded self-aminoacylation for the entries that follow.
- System: biotinyl-Trp-oxazolone
- test-description: self-aminoacylation, catalytic enhancement (BWO) (fold over background); higher = more active; k-Seq, kA / k0A0; sequences stand for … in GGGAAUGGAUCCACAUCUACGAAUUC…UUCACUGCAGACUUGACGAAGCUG
Variants at the floor of the assay were thinned out.
Give bare numbers.

{"primary-sequence": "AGACACUUCAAGCAAUCGGUC [Fam1B.1 aminoacylation ribozyme variant]", "target-or-system": "biotinyl-Trp-oxazolone", "self-aminoacylation": 16}

Give one value of self-aminoacylation per listed sequence.
1. AUAGUUCAAACAAUCGGUCUG [Fam1A.1 aminoacylation ribozyme variant]
2. AUUACCCUGAUCGUCGAGUGA [Fam2.1 aminoacylation ribozyme variant]
3. AUUCACCUGGGGCAUCGGGUG [Fam2.2 aminoacylation ribozyme variant]

[out]
1. 3.06
2. 0.86
3. 7.38
